# Target Entity: HCV polymerase (NS5B) type 1a (Hepatitis C virus genotype 1a, UniProt P26664)
# Construct: made in house; host or cells: Escherichia coli (by the 'similar method' of the 1b enzyme)
# Assay Method Text: Assay of enzyme (HCV polymerase) inhibitory activity, type 1a enzyme
# Assay type: biochemical, HCV type 1a (cloned from the blood of patients)
# Recorded Conditions: HCV polymerase inhibitory activity IC50, 1a, type 1a enzyme
What IC50 was measured for each of the following?

q: Could you share which IC50 value was measured for `O=C(NCc1ccc(OC(F)(F)F)cc1)[C@H]1CN(c2nc3nc(Br)ncc3s2)CCN1S(=O)(=O)c1ccc(OC(F)(F)F)cc1` ?
a: < 100 nM

q: And the next one, `CCCc1ccc(CNC(=O)[C@H]2CN(C(C)=O)CCN2S(=O)(=O)c2ccc(OC(F)(F)F)cc2)cn1` ?
a: > 1000 nM

q: And the next one, `O=C(NCc1ccc(OC(F)F)cc1F)[C@H]1CN(c2nc3nc(C(F)(F)F)ncc3s2)CCN1S(=O)(=O)c1ccc(OC(F)(F)F)cc1` ?
a: < 100 nM

q: And the next one, `O=C(NCc1ccc(OC(F)(F)F)cc1)[C@H]1CN(c2nc3nc(C(F)(F)F)[nH]c(=O)c3s2)CCN1S(=O)(=O)c1ccc(OC(F)(F)F)cc1` ?
a: < 100 nM

q: And the next one, `CCC(F)(F)c1ccc(CNC(=O)[C@H]2CN(c3cnc4ccc(Br)cc4n3)CCN2S(=O)(=O)c2ccc(OC(F)(F)F)cc2)cc1` ?
a: 100 to 1000 nM

q: And the next one, `Cc1nnc2sc(N3CCN(S(=O)(=O)c4ccc(OC(F)(F)F)cc4)[C@@H](C(=O)NCc4ccc(OC(F)(F)F)cc4)C3)nn12` ?
a: < 100 nM

q: And the next one, `O=C(NCc1ccc(OC(F)F)cc1)[C@H]1CN(c2nc3ncncc3s2)CCN1S(=O)(=O)c1ccc(OC(F)F)cc1` ?
a: < 100 nM

q: And the next one, `COCCn1ncc2sc(N3CCN(S(=O)(=O)c4ccc(OC(F)(F)F)cc4)[C@@H](C(=O)NCc4ccc(OC(F)(F)F)cc4)C3)nc2c1=O` ?
a: < 100 nM

q: And the next one, `CN(C)C(=O)c1cncc2ncc(N3CCN(S(=O)(=O)c4ccc(OC(F)(F)F)cc4)[C@@H](C(=O)NCc4ccc(OC(F)(F)F)cc4)C3)nc12` ?
a: < 100 nM

q: And the next one, `COc1ccc(S(=O)(=O)N2CCN(c3nc4cn[nH]c(=O)c4s3)C[C@@H]2C(=O)NCc2ccc(OC(F)(F)F)cc2)cc1` ?
a: < 100 nM

q: And the next one, `O=C(NCc1ccc(OC(F)(F)F)cc1)[C@H]1CN(c2cnc3cncc(Br)c3n2)CCN1S(=O)(=O)c1ccc(OC(F)(F)F)cc1` ?
a: < 100 nM

q: And the next one, `CC(=O)N1CCN(S(=O)(=O)c2ccc(C(C)C)cc2)[C@H](C(=O)NCc2ccc(C(F)(F)F)cc2)C1` ?
a: > 1000 nM

q: And the next one, CCC(F)(F)c1ccc(CNC(=O)[C@H]2CN(c3cnc4cncnc4n3)CCN2S(=O)(=O)c2ccc3c(c2)CCC(CC(=O)O)CC3)cc1 (stereo partly shown) ?
a: < 100 nM

====

What pIC50 was measured for each of the following?
# Target Entity: HCV polymerase (NS5B) type 1a (Hepatitis C virus genotype 1a, UniProt P26664)
# Construct: made in house; host or cells: Escherichia coli (by the 'similar method' of the 1b enzyme)
# Assay Method Text: Assay of enzyme (HCV polymerase) inhibitory activity, type 1a enzyme
# Assay type: biochemical, HCV type 1a (cloned from the blood of patients)
# Recorded Conditions: HCV polymerase inhibitory activity IC50, 1a, type 1a enzyme
pIC50: −log10 of the molar value.

q: Could you share which pIC50 value was measured for CCC(F)(F)c1ccc(CNC(=O)[C@H]2CN(C(=O)/C=C\C(=O)O)CCN2S(=O)(=O)c2ccc(OC(F)(F)F)cc2)cc1 [Example 666] ?
a: < 6.00

q: And the next one, CC(=O)N1CCN(S(=O)(=O)c2ccc(OC(F)(F)F)cc2)[C@@H](C(=O)NCc2ccc(OC(F)(F)F)c(F)c2)C1 [Example 1103] ?
a: 6.00 to 7.00

q: And the next one, O=C(NCc1ccc(OC(F)(F)F)cc1)[C@H]1CN(c2nc3nc(CN4CCCC4)ncc3s2)CCN1S(=O)(=O)c1ccc(OC(F)(F)F)cc1 [Example 1056] ?
a: > 7.00

q: And the next one, O=C(NCc1ccc(OC(F)F)cc1)[C@H]1CN(c2nn3ccc(=O)nc3s2)CCN1S(=O)(=O)c1ccc(OC(F)(F)F)cc1 [Example 1053] ?
a: > 7.00

q: And the next one, O=C(NCc1ccc(OC(F)F)cc1)[C@H]1CN(c2nc3nc(C4CC4)ncc3s2)CCN1S(=O)(=O)c1ccc(OC(F)(F)C(F)F)cc1 [Example 1018] ?
a: > 7.00

q: And the next one, O=C(NCc1ccc(OC(F)F)cc1)[C@H]1CN(c2nc3nc(C4CC4)ncc3s2)CCN1S(=O)(=O)c1ccc(OC(F)(F)F)cc1 [Example 1017] ?
a: > 7.00

q: And the next one, CNc1ncc2sc(N3CCN(S(=O)(=O)c4ccc(OC(F)(F)F)cc4)[C@@H](C(=O)NCc4ccc(OC(F)(F)F)cc4)C3)nc2n1 [Example 952] ?
a: > 7.00

q: And the next one, O=C(NCc1ccc(OC(F)(F)F)cc1)[C@H]1CN(c2nc3nc(C(F)(F)F)ncc3s2)CCN1S(=O)(=O)c1ccc(C(F)(F)F)cc1 [Example 981] ?
a: > 7.00

q: And the next one, O=C(O)CCn1ncc2sc(N3CCN(S(=O)(=O)c4ccc(OC(F)(F)F)cc4)[C@@H](C(=O)NCc4ccc(OC(F)(F)F)cc4)C3)nc2c1=O [Example 1112] ?
a: > 7.00

q: And the next one, CC(=O)N1CCN(S(=O)(=O)c2ccc(OC(F)(F)F)cc2)[C@@H](C(=O)NC[C@H]2CC[C@H](C(=O)O)CC2)C1 [Example 669] ?
a: < 6.00

q: And the next one, CCC(C)(C)c1ccc(CNC(=O)[C@H]2CN(c3cnc4cncc(C(=O)O)c4n3)CCN2S(=O)(=O)c2ccc(Cl)s2)cc1 [Example 858] ?
a: > 7.00

q: And the next one, CC(C)c1ncc2sc(N3CCN(S(=O)(=O)c4ccc(C(F)(F)F)cc4)[C@@H](C(=O)NCc4ccc(OC(F)(F)F)cc4)C3)nc2n1 [Example 991] ?
a: > 7.00

====

# Target Entity: HCV polymerase (NS5B) type 1b (Hepatitis C virus genotype 1b, UniProt P26663)
# Construct: a region encoding NS5B (J Virol 1991 March, 65(3), 1105-13, 544 amino acids after deletion of 47 amino acids on the C-terminal); 6xHis (C); made in house; host or cells: Escherichia coli
# Assay Method Text: Assay of enzyme (HCV polymerase) inhibitory activity, type 1b enzyme
# Format: biochemical, HCV BK strain (type 1b)
# Recorded Conditions: HCV polymerase inhibitory activity (IC50), 1b, type 1b enzyme 0.5 μg/ml, 25° C., 60 min
pIC50: −log10 of the molar value. Where a name gives a salt, the structure may show the parent alone.
What pIC50 was measured for each of the following?

q: Could you share which pIC50 value was measured for COc1ccc(CNC(=O)[C@H]2CN(c3cnc4cncnc4n3)CCN2S(=O)(=O)c2ccc(OC(F)(F)F)cc2)cc1 [Example 658] ?
a: > 7.00

q: And the next one, CCC(F)(F)c1ccc(CNC(=O)[C@H]2CN(C(=O)C3CC3)CCN2S(=O)(=O)c2ccc(OC(F)(F)F)cc2)cc1 [Example 610] ?
a: 6.00 to 7.00

q: And the next one, Cc1nc(N2CCN(S(=O)(=O)c3ccc(OC(F)(F)F)cc3)[C@@H](C(=O)NCc3ccc(N(C)C)cc3)C2)sc1C(=O)O [Example 379, hydrochloride] ?
a: > 7.00

q: And the next one, CC(C)c1ccc(CNC(=O)[C@H]2CN(C(=O)Cn3ccnc3)CCN2S(=O)(=O)c2ccc(C(F)(F)F)cc2)cc1 [Example 219] ?
a: > 7.00

q: And the next one, CCC(F)(F)c1ccc(CNC(=O)[C@H]2CN(c3cnc4cncnc4n3)CCN2S(=O)(=O)c2ccc(OC(F)(F)F)cc2)cc1 [Example 615] ?
a: > 7.00

q: And the next one, COc1ccc(NC(=O)N2CCN(S(=O)(=O)c3ccc(C(F)(F)F)cc3)[C@@H](C(=O)NCc3ccc(C(C)C)cc3)C2)cc1 [Example 277] ?
a: 6.00 to 7.00

q: And the next one, CCc1ccc(CNC(=O)[C@H]2CN(C(C)=O)CCN2S(=O)(=O)c2ccc(C(C)C)cc2)c(C)c1 [Example 321] ?
a: > 7.00

q: And the next one, CCCc1ccc(S(=O)(=O)N2CCN(c3nc(C(=O)O)c(C)s3)C[C@@H]2C(=O)NCc2ccc(C(C)C)cc2)cc1 [Example 434] ?
a: > 7.00

q: And the next one, CC(=O)N1CCN(S(=O)(=O)c2ccc(C3CC3)cc2)[C@@H](C(=O)NCc2ccc(C(C)C)cc2)C1 [Example 400] ?
a: > 7.00

q: And the next one, CCC(F)(F)c1ccc(CNC(=O)[C@H]2CN(C(=O)Cn3nnnc3C)CCN2S(=O)(=O)c2ccc(OC(F)(F)F)cc2)cc1 [Example 467] ?
a: 6.00 to 7.00

q: And the next one, CC(C)c1ccc(CNC(=O)[C@H]2CN(C(=O)CNCC(=O)O)CCN2S(=O)(=O)c2ccc(C(F)(F)F)cc2)cc1 [Example 384, hydrochloride] ?
a: 6.00 to 7.00

q: And the next one, CN(C)c1ccc(CNC(=O)[C@H]2CN(C(=O)Cc3ccncc3)CCN2S(=O)(=O)c2ccc(OC(F)(F)F)cc2)cc1 [Example 410] ?
a: 6.00 to 7.00

q: And the next one, COc1ccc(CC(=O)N2CCN(S(=O)(=O)c3ccc(C(F)(F)F)cc3)[C@@H](C(=O)NCc3ccc(C(C)C)cc3)C2)cc1 [Example 266] ?
a: 6.00 to 7.00
